This collection of values is drawn from paper PMC2779801.

test system: Subtype B virus 5331; experiment: Cell culture phenotypic drug susceptibility assay (p24 antigen) in cord blood mononuclear cells; assay type: cell-based, HIV-1; details: Subtype B virus 5331; cord blood mononuclear cells; p24 antigen; read-out: EC50 Values
pEC50: −log10 of the molar value.
Quantity measured: pEC50

>>> number("CCN1C[C@H](C)n2c(c(O)c3c(=O)n(Cc4ccc(F)c(Cl)c4)nc(C(=O)NC)c32)C1=O")
9.00

----------
system: Subtype B virus pNL4-3; assay: Cell culture phenotypic drug susceptibility assay (p24 antigen) in cord blood mononuclear cells; format: cell-based, HIV-1; settings: Subtype B virus pNL4-3; cord blood mononuclear cells; p24 antigen; read-out: EC50 Values
Quantity measured: EC50

>>> result("CCN1C[C@H](C)n2c(c(O)c3c(=O)n(Cc4ccc(F)c(Cl)c4)nc(C(=O)NC)c32)C1=O")
"2.7 nM"

----------
System: Subtype C virus 96USNG31
Experiment: Cell culture phenotypic drug susceptibility assay (p24 antigen) in cord blood mononuclear cells
Format: cell-based, HIV-1
Details: Human immunodeficiency virus 1, read-out: EC50 Values
Procedure: Recombinant viruses (subtype B) (pNL4-3 and IIIb) and viruses obtained from either our primary HIV infection cohort or from long-term infected patients (subtype B and C) were amplified as previously described. Drug susceptibility was measured in cell culture-based phenotypic assays using cord blood mononuclear cells to determine the extent of […] HIV replication blockage by integrase inhibitors.
pEC50: −log10 of the molar value.
Quantity measured: pEC50

>>> number("Cc1nnc(C(=O)NC(C)(C)c2nc(C(=O)NCc3ccc(F)cc3)c(O)c(=O)n2C)o1 [RAL, raltegravir]")
8.06
>>> number("COc1cc2c(cc1Cc1cccc(Cl)c1F)c(=O)c(C(=O)O)cn2[C@H](CO)C(C)C [EVG, elvitegravir]")
9.10

----------
tested on: Subtype C virus 4742; assay: Cell culture phenotypic drug susceptibility assay (p24 antigen) in cord blood mononuclear cells; format: cell-based, HIV-1; conditions: Human immunodeficiency virus 1, read-out: EC50 Values
Quantity measured: EC50 (nM)

>>> number("COc1cc2c(cc1Cc1cccc(Cl)c1F)c(=O)c(C(=O)O)cn2[C@H](CO)C(C)C [EVG, elvitegravir]")
2.2
>>> number("Cc1nnc(C(=O)NC(C)(C)c2nc(C(=O)NCc3ccc(F)cc3)c(O)c(=O)n2C)o1 [RAL, raltegravir]")
20.6

----------
test system: Subtype B virus BK 132; experiment: Cell culture phenotypic drug susceptibility assay (p24 antigen) in cord blood mononuclear cells; assay type: cell-based, HIV-1; settings: read-out: EC50 Values
Quantity measured: EC50 (nM)

>>> number("Cc1nnc(C(=O)NC(C)(C)c2nc(C(=O)NCc3ccc(F)cc3)c(O)c(=O)n2C)o1")
30.1

----------
target: HIV-1 subtype C integrase (Human immunodeficiency virus type 1, UniProt Q9QN97, C991S/F896H); conditions: read-out: Strand Transfer IC50, Mn2+-based assay, 95% confidence interval in brackets
Quantity measured: IC50

>>> result("CCN1C[C@H](C)n2c(c(O)c3c(=O)n(Cc4ccc(F)c(Cl)c4)nc(C(=O)NC)c32)C1=O [MK-2048]")
"80 nM"

----------
tested on: Subtype C virus BG-05; assay: Cell culture phenotypic drug susceptibility assay (p24 antigen) in cord blood mononuclear cells; format: cell-based, HIV-1; settings: Subtype C virus BG-05; cord blood mononuclear cells; p24 antigen; read-out: EC50 Values
pEC50: −log10 of the molar value.
Quantity measured: pEC50

>>> number("CCN1C[C@H](C)n2c(c(O)c3c(=O)n(Cc4ccc(F)c(Cl)c4)nc(C(=O)NC)c32)C1=O")
8.66
